Biological target: T1, PMA-treated THP-1 cells (endogenously expressed human MSR1) (Homo sapiens, UniProt P21757)
T1 construct: endogenous in cells; host or cells: THP-1 cells differentiated with PMA
T1 sequence (P21757 1-451): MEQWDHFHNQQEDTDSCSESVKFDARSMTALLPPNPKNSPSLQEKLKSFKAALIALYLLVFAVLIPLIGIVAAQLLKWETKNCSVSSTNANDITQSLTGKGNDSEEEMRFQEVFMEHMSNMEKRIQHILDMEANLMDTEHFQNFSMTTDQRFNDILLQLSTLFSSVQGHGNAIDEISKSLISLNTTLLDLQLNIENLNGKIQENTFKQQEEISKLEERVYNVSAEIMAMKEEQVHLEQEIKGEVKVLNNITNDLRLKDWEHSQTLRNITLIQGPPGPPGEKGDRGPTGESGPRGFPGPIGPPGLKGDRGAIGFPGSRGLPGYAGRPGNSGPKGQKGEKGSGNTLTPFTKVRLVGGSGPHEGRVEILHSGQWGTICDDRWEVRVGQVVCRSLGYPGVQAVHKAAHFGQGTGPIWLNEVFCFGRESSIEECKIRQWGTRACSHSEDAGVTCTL
Experiment: Electrochemiluminescence antibody binding assay on MSR1-expressing cells
Format: cell-based
OBSERVABLE: Ratio of 11 nM Antibody Binding Signal (RLU) to isotype control, PMA-treated THP-1

| MOLECULE | REPORTED_MEASUREMENT |
| --- | --- |
| H2aM25695N: one of "Twelve anti-MSR1 antibodies"; "an “H2aM” antibody has a mouse IgG2a Fc" (antibody, V domains shown) VH: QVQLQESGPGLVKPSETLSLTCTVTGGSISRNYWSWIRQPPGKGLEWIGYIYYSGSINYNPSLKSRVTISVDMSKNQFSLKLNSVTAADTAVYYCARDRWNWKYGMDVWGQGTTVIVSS VL: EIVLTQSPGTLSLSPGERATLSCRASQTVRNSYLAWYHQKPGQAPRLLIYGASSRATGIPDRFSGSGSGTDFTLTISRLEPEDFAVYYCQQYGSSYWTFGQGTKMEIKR | 8 |
| H1H27734P-N297Q: one of "Twelve anti-MSR1 antibodies"; "made with an N297Q single point mutation in human Fcγ portion" (antibody, V domains shown) VH: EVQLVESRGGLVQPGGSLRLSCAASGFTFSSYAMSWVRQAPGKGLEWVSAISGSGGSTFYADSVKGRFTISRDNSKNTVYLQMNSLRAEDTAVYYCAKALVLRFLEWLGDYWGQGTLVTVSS VL: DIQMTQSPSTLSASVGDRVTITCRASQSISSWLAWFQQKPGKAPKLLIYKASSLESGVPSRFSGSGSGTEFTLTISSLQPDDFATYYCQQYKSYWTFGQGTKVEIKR | 21 |
